tested on: KB-3-1; assay: Cytotoxic Profiling of Annotated Libraries Using Quantitative High-Throughput Screening (AID 1296008); details: Five cell lines viability, CellTiter-Glo ATP luminescence, 48-72 h; also: nearly all actives have a fitted effect of over 60% in size
Records with an inconclusive call do not appear. Calls of active or inactive are those of the source. Calls follow the shape of the dose curve; as a rule, active = well fitted inhibition curve with a large enough effect; inconclusive = small, poorly fitted or top-dose-only effect; inactive = flat fitted curve, though single readings scatter.
Outcome codes: active, inactive

# compound, answer.label
rows = [
    ("CC(C)(C)Sc1c(CC(C)(C)C(=O)O)n(Cc2ccc(Cl)cc2)c2ccc(OCc3ccc4ccccc4n3)cc12", "inactive"),
    ("COc1ccc2[nH]c(=O)c3c(c2c1)OC(C)(C)C=C3", "inactive"),
    ("C=C1C(=O)O[C@@H]2[C@H]1CC[C@H](C)[C@]1(CCC(=O)O1)C2(C)O (some centres undefined)", "inactive"),
    ("COc1ccc2cc3c(NC(=O)c4ccco4)nn(C)c3nc2c1", "active"),
    ("COc1ccc(C2=NC(c3ccc(Cl)cc3)C(c3ccc(Cl)cc3)N2C(=O)N2CCNC(=O)C2)c(OC(C)C)c1 (centres undefined)", "inactive"),
    ("C=C1CC[C@@H](O)[C@]2(C)CC[C@H]3C(=C)C(=O)O[C@@H]3[C@@H]12", "inactive"),
    ("NC(=O)c1nc(Nc2ccccc2)sc1NC(=O)C1CCCCC1", "inactive"),
    ("CC(=O)OCC(=O)[C@@]12O[C@@H]1C[C@H]1[C@@H]3CC=C4C[C@@H](O)CC[C@]4(C)[C@H]3CC[C@@]12C", "inactive"),
    ("C=C1C(=O)OC2/C=C(\\CO)CC/C=C(\\C=O)C(O)C(OC(=O)C(C)CC)C12 (centres undefined)", "inactive"),
]

----------
Tested on: HeLa
Assay: Primary qHTS to identify gynecologic anti-cancer compounds using libraries of approved drugs and bioactive compounds (AID 1345084); also: nearly all actives have a fitted effect of over 55% in size; also: potency is read from the fitted curve at half-maximal effect
Settings: Gynecologic cancer cell panel viability, ATPlite luminescence, 48 h; series mostly up to 57.5 µM
Description: National Center for Advancing Translational Sciences [NCATS] Assay Overview: Chemotherapeutic drug responses vary from cancer to cancer and from patient to patient. […] ATPlite is a luminescence based assay reliant on the conversion of a luciferase substrate to light in the presence of ATP. As a cytotoxic compound will suppress growth and decrease the number of cells, the concentration of ATP will decrease, and less light signal will be detected in the well. […]
Results filed as inconclusive are left out. Activity calls are given as the source filed them. Calls follow the shape of the dose curve; as a rule, active = well fitted cell-killing curve with a large enough effect; inconclusive = small, poorly fitted or top-dose-only effect, or effect the other way; inactive = flat fitted curve, though single readings scatter.

# molecule, Potency
measured = [
    ("COc1cc(-c2nc(N[C@H](CO)Cc3ccccc3)ccc2C(=O)NCCOc2ccccc2)cc(OC)c1OC", "inactive"),
    ("O=C(Nc1ccc(Cl)cc1)Nc1cccc(-c2cccc(N3CCCC3)n2)c1", "inactive"),
    ("CCCCCc1ccc(/C=C/C(=O)Nc2cc(Cl)ccc2C(=O)O)cc1", "inactive"),
    ("CCOc1cccc(NC(=O)c2ccc(N3CCCC3)c(C(F)(F)F)c2)c1", "inactive"),
    ("Cc1cc2c(N3CCCC3)nc(N3CCCC3)nc2n1C", "inactive"),
    ("COc1cc(-n2cnc3cc(-c4ccc(Cl)cc4)sc3c2=O)ccc1OCCN1CCCC1", "inactive"),
    ("CC(C)(C)[C@H](NC(=O)c1ccc(N)c(Cl)c1)C(=O)N1CCC[C@H]1C(=O)N[C@H](C#N)CC(=O)O", "inactive"),
    ("CC1(C)CN(C(=O)c2ccc(-c3cccc4nc(NC(=O)C5CC5)nn34)cc2)C1", "inactive"),
    ("C[C@H](Oc1cc(-c2cnn(C3CCNCC3)c2)cnc1N)c1c(Cl)ccc(F)c1Cl", "inactive"),
    ("N#Cc1ccc(O[C@@H]2c3ccccc3C[C@H]2N2CCC[C@@H](N)C2)c(Cl)c1", "inactive"),
    ("C=C(C)C(=O)O[C@H]1C[C@@](C)(O)C2(O)CCC(C)(/C=C3/OC(=O)C(COC)=C31)O2 (some centres undefined)", "inactive"),
    ("CCC/C=C/c1cc2c(C=O)c(O)c(CC=C(C)C)cc2o1", "inactive"),
    ("O=c1[nH]cnc2c([C@@H]3N[C@H](CO)[C@@H](O)[C@H]3O)c[nH]c12", "inactive"),
    ("NS(=O)(=O)c1ccc(NC(=O)Nc2ccc(F)cc2)cc1", "inactive"),
    ("CC(C)(O)C1Cc2c(ccc(C(=O)CCc3ccccc3)c2O)O1 (centres undefined)", "10 µM (active)"),
    ("CC(NC(=O)Cc1cc(F)cc(F)c1)C(=O)NC1C(=O)N(C)c2ccccc2-c2ccccc21 (centres undefined)", "inactive"),
    ("Cc1ccc(F)cc1S(=O)(=O)N[C@@H]1CCN(Cc2ccc(OC(C)C)cc2)C1", "inactive"),
    ("CCN1CCC[C@@H]1CNC(=O)c1ccc2c(c1)NC(=O)c1cccc(C)c1S2", "inactive"),
    ("Cc1[nH]c2ccccc2c1CCNCc1ccc(/C=C/C(=O)NO)cc1", "0.126 µM (active)"),
    ("FC(F)(F)c1ccccc1-c1cc(C(F)(F)F)c2nc(C3=NOC4(CCCCC4)C3)[nH]c2c1", "inactive"),
    ("COc1ccc(NC(=O)C2C[C@H](C)CC[C@H]2C(C)C)cc1 (some centres undefined)", "inactive"),
    ("COc1ccnc(CS(=O)c2nc3cc(OC(F)F)ccc3[nH]2)c1OC (centres undefined)", "inactive"),
    ("O=C(c1cc(Cc2n[nH]c(=O)c3ccccc23)ccc1F)N1CCCNCC1", "inactive"),
    ("Cc1cc2sc(NC(=O)Cc3ccccc3)nc2cc1Cl", "inactive"),
    ("C[C@@H]1O[C@@H](O[C@H]2[C@@H]3C=CO[C@@H](O[C@@H]4O[C@H](CO)[C@@H](O)[C@H](O)[C@H]4O)[C@@H]3[C@@]3(CO)O[C@@H]23)[C@H](O)[C@H](OC(=O)/C=C/c2ccccc2)[C@H]1O", "inactive"),
    ("C=C(C)C1CC(O)C(C)C12CC(O)C1(C)OC1C2O (centres undefined)", "14.1 µM (active)"),
    ("COc1ccc(NC(=O)c2ccc(C(=N)N(C)C)cc2)c(C(=O)Nc2ccc(Cl)cn2)c1", "inactive"),
    ("COC1CCN(C(=O)c2cc(Cc3n[nH]c(=O)c4ccccc34)ccc2F)CC1", "inactive"),
    ("C=C1CC2OC(=O)C(=C)C2C(O)/C=C(\\C)CCC1O (centres undefined)", "inactive"),
    ("Cn1c(=O)c(F)c(Nc2ccc(I)cc2F)c2c(=O)n(CC(O)CO)cnc21 (centres undefined)", "inactive"),
    ("CC(C)(O)c1ccn2c(-c3ccc(F)c(-c4ccc(F)cc4C#N)c3)cnc2c1F", "inactive"),
    ("Cc1ccc(C)c(NC(=O)[C@@H]2CCCN2S(=O)(=O)c2cccc3cccnc23)c1", "inactive"),
    ("N#Cc1cc(CN2CCC(Nc3ncnc4sc(Cl)cc34)CC2)ccc1F", "inactive"),
    ("CCc1cnc(N2CCC(c3nc(COc4ccc(-n5cnnn5)cc4)cs3)CC2)nc1", "inactive"),
    ("CN(C)c1cccc(Oc2cnc(Nc3cccc(O)c3)nc2)c1", "inactive"),
    ("COc1ccc(OC)c(-c2ccc(NC(=O)c3ccncc3F)cc2)c1", "inactive"),
    ("COc1ccc(CCc2nc3c(C)c(-c4c(C)noc4C)c(C)cc3n2CCN2CCOCC2)cc1", "inactive"),
    ("CC(C)=C1C[C@@]2(C)C(=CC1=O)CC[C@@H](OC(=O)/C(C)=C/CO)[C@@H]2C", "inactive"),
    ("COC1=CC(=O)O/C1=C(/OC)[C@@H]1O[C@H]1c1ccccc1", "inactive"),
]

----------
tested on: CAOV3; test: Primary qHTS to identify gynecologic anti-cancer compounds using libraries of approved drugs and bioactive compounds (AID 1345084); settings: Gynecologic cancer cell panel viability, ATPlite luminescence, 48 h; series mostly up to 57.5 µM; also: nearly all actives have a fitted effect of over 55% in size
Records with an inconclusive call do not appear. Activity calls are given as the source filed them. Calls follow the shape of the dose curve; as a rule, active = well fitted cell-killing curve with a large enough effect; inconclusive = small, poorly fitted or top-dose-only effect, or effect the other way; inactive = flat fitted curve, though single readings scatter.
Labels: 1 (yes) (active), 0 (no) (inactive)

# compound, answer.label
data = [
    ("O=C1C[C@]23C=CCN4CCC5c6cc7c(cc6N1[C@@]5(CC2)C43)OCO7 (stereo not given in full)", "0 (no)"),
    ("O=C(Nc1nnc(-c2ccc3c(c2)OCCO3)o1)C1CCCCC1", "0 (no)"),
    ("CCC(CC)C(=O)OC12C(OC(=O)C(C)C)C(C)C3(O)C(C=C(CO)CC4(O)C(=O)C(C)=CC43)C1C2(C)C (stereo not given)", "0 (no)"),
    ("COc1cc2ncnc(Nc3ccc(O)c(Br)c3)c2cc1OC", "0 (no)"),
    ("COc1cc(C(C)C)c(Oc2cnc(N)nc2N)cc1I", "0 (no)"),
    ("Cc1c(NC(=O)OCC2COCCN2)cn2ncnc(Nc3ccc4c(cnn4Cc4cccc(F)c4)c3)c12 (stereo not given)", "0 (no)"),
    ("CCOC(=O)CCNc1cc(N2CCc3ccccc3CC2)nc(-c2cccnc2)n1", "0 (no)"),
    ("Cc1cc(N2CCOCC2)ccc1Nc1nc(NC2CCCCC2)c2[nH]cnc2n1", "0 (no)"),
    ("COc1ccc(C2(CNC(=O)c3ccc(NC(=O)c4ccco4)cc3)CCOCC2)cc1", "0 (no)"),
    ("CC(C)NC(=O)COc1cccc(-c2nc(Nc3ccc4[nH]ncc4c3)c3ccccc3n2)c1", "1 (yes)"),
    ("Cc1ccc(NC(=O)c2ccc(CN3CCNCC3)cc2)cc1Nc1nccc(-c2cccnc2)n1", "1 (yes)"),
    ("Cc1cc(OCCCS(C)(=O)=O)cc(C)c1-c1cccc(COc2ccc3c(c2)OCC3CC(=O)O)c1 (stereo not given)", "0 (no)"),
    ("COc1ccc(C#Cc2ccc(C(=O)N3CCC[C@@H](CO)C3)cc2)cc1", "0 (no)"),
    ("Cn1ncnc1[C@H]1c2n[nH]c(=O)c3cc(F)cc(c23)N[C@@H]1c1ccc(F)cc1", "0 (no)"),
    ("CCc1ccccc1OC[C@@H](O)CN[C@H]1CCCc2ccccc21", "0 (no)"),
    ("C=C1C(=O)OC2C=C(C)CC/C=C(\\CO)CC(O)C12 (stereo not given)", "0 (no)"),
    ("CC1CC(=O)C2=C(C1)C1OC1C1(O)C2C(=O)c2cccc(O)c2C1O (stereo not given)", "0 (no)"),
    ("Cc1sc2c(c1C)C(c1ccc(Cl)cc1)=N[C@H](CC(=O)NCCCCNC(=O)COc1cccc3c1C(=O)N([C@H]1CCC(=O)NC1=O)C3=O)c1nnc(C)n1-2", "0 (no)"),
    ("O=C(N[C@H](Cc1cscn1)C(=O)N[C@@H](CC1CCCCC1)[C@@H](O)[C@@H](O)C1CC1)c1nc2ccccc2[nH]1", "0 (no)"),
    ("CCCCc1c(-c2ccc(OC)cc2)[nH]c2nccnc12", "0 (no)"),
]
